I'd be grateful if you could share measured pIC50 for these entries.
# Test target: Neurotensin receptor NTS1 (HT29 cells/membranes) (human), P30989
# Sequence (P30989 whole entry): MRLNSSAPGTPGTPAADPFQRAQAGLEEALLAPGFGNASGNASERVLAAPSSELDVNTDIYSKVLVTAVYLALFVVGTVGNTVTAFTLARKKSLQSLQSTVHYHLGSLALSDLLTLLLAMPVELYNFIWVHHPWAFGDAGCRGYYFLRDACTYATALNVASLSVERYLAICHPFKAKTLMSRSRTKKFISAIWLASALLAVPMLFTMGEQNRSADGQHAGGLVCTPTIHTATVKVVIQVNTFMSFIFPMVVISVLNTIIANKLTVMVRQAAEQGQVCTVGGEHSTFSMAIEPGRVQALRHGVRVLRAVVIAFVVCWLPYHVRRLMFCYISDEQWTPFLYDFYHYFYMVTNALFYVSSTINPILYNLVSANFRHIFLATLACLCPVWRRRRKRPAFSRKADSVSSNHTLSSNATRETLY
# Method summary: competition, HT29 cells
# Reported conditions: modification not given
Answers are plain numbers, as −log10 of the molar value.

Below, 3 binders whose answers are already recorded.
KPRRPYIL [DOTA(Y)-LB119]: 8.00
KPRRPYIL [DOTA(In)-LB119]: 7.85
KPRRPYIL [DOTA(Ga)-LB119]: 8.12

Let us examine a further case.
Exercise: Which pIC50 reading was recorded for the binder KPRRPYIL [DTPA(In)-NT-20.1] ?
Solution: 8.17
